Biological target: Aurora kinase B (Homo sapiens, UniProt Q96GD4)
Sequence (Q96GD4 whole entry): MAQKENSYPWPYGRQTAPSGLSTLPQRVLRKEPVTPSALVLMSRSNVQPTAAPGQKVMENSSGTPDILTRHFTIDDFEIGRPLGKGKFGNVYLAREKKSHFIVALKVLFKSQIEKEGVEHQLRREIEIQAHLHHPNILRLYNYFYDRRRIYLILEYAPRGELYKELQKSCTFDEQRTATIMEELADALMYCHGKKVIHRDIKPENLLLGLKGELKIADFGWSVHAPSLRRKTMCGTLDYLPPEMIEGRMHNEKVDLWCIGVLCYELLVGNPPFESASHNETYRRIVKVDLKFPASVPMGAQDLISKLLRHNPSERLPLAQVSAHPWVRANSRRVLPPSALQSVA
Experiment: Inhibition of human recombinant Aurora B after 60 mins
Answer each item with its documented pKi.
Give bare numbers, as −log10 of the molar value.

Answered examples (2):
CCNc1nc(C)c(-c2ccnc(Nc3ccc(CNC(C)=O)cc3)n2)s1 :: 8.40
Cc1nc(C)c(-c2ccnc(Nc3ccc(N(C)C)cc3)n2)s1 :: 7.82

Go through the list and state pKi for each entry.
1. Cc1nc(C)c(-c2ccnc(Nc3ccc(N4CCN(S(C)(=O)=O)CC4)cc3)n2)s1
2. CNc1nc(C)c(-c2ccnc(Nc3ccc(N4CCOCC4)cc3)n2)s1
3. CC(=O)N1CCN(c2ccc(Nc3nccc(-c4sc(C)nc4C)n3)cc2)CC1
4. CC(=O)N1CCN(c2ccc(Nc3nccc(-c4sc(N)nc4C)n3)cc2)CC1
5. CNc1nc(C)c(-c2ccnc(Nc3ccc(N4CCN(C(C)=O)CC4)cc3)n2)s1

OUT:
1. 7.74
2. 8.03
3. 7.89
4. 8.42
5. 8.01

Look up pKi for the entries below, preserving their order.
1. COc1cc(Nc2nccc(-c3sc(C)nc3C)n2)cc(OC)c1OC
2. CNc1ccc(Nc2nccc(-c3sc(C)nc3C)n2)cc1
3. CCNc1nc(C)c(-c2ccnc(Nc3ccc(N4CCOCC4)cc3)n2)s1
4. CNc1nc(C)c(-c2ccnc(Nc3cc(OC)c(OC)c(OC)c3)n2)s1

OUT:
1. 8.70
2. 7.48
3. 8.22
4. 8.52

Hey, quick one: what's pKi for each of these?
1. CCNc1nc(C)c(-c2ccnc(Nc3cc(OC)c(OC)c(OC)c3)n2)s1
2. Cc1nc(C)c(-c2ccnc(Nc3ccc(N4CCOCC4)cc3)n2)s1

OUT:
[8.22, 8.05]

* * *

Assay: Half life in rat liver microsomes by LC/MS/MS analysis
Type: ADME, Microsome
measured endpoint: half-life (min)
Give bare numbers, in min.

Cc1nc(N)sc1-c1ccnc(Nc2ccc(N3CCOCC3)cc2)n1 :: 32.8

// next entry
IN: Record request: half-life value, item Cc1nc(C)c(-c2ccnc(Nc3ccc(N(C)C)cc3)n2)s1
OUT: 4.7

* * *

For each of the compounds below, state its clearance.
Tested on: Liver microsomes
Assay: Intrinsic clearance in rat liver microsomes by LC/MS/MS analysis
Type: ADME, Microsome
Give bare numbers, in µL/min/mg.

Cc1nc(N)sc1-c1ccnc(Nc2ccc(N3CCOCC3)cc2)n1 [CYC-116] :: 42.3

Proceeding to the next compound to report its clearance.
IN: Give Liver microsomes clearance for Cc1nc(C)c(-c2ccnc(Nc3ccc(N(C)C)cc3)n2)s1
OUT: 296

* * *

Target: Aurora kinase A (Homo sapiens)
Sequence (O14965 whole entry): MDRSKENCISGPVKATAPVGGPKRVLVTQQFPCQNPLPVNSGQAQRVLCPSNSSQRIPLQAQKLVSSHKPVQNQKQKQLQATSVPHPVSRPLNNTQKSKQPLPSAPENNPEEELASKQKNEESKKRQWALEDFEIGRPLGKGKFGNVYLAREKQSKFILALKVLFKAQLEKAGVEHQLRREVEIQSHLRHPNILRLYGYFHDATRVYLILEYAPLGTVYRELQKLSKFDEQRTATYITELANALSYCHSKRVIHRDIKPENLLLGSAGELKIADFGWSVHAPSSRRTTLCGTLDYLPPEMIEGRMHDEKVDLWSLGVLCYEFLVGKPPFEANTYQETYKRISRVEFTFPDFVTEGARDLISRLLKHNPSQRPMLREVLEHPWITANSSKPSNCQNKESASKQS
Assay: Inhibition of human recombinant Aurora A after 30 mins
Assignment: determine reported Ki for the given compounds.
One number for each entry, in nM.

COc1cc(Nc2nccc(-c3sc(C)nc3C)n2)cc(OC)c1OC :: 0.4
Cc1nc(C)c(-c2ccnc(Nc3ccc(N4CCN(S(C)(=O)=O)CC4)cc3)n2)s1 :: 9.2
CC(=O)N1CCN(c2ccc(Nc3nccc(-c4sc(N)nc4C)n3)cc2)CC1 :: 7.6
CCNc1nc(C)c(-c2ccnc(Nc3ccc(N4CCOCC4)cc3)n2)s1 :: 14
CC(=O)N1CCN(c2ccc(Nc3nccc(-c4sc(C)nc4C)n3)cc2)CC1 :: 8.2
CNc1ccc(Nc2nccc(-c3sc(C)nc3C)n2)cc1 :: 18
CCNc1nc(C)c(-c2ccnc(Nc3ccc(CNC(C)=O)cc3)n2)s1 :: 5
CCNc1nc(C)c(-c2ccnc(Nc3cc(OC)c(OC)c(OC)c3)n2)s1 :: 3

Record Ki for all entries; do not skip any.
1. CNc1nc(C)c(-c2ccnc(Nc3ccc(N4CCOCC4)cc3)n2)s1
2. Cc1nc(C)c(-c2ccnc(Nc3ccc(N(C)C)cc3)n2)s1
3. Cc1nc(C)c(-c2ccnc(Nc3ccc(N)cc3)n2)s1

OUT:
1. 19
2. 6.9
3. 31

Reference source for all entries: ChEMBL document CHEMBL1155519
